Provide the recorded IC50 at 48 h for the entries that follow.
# measurement-notes: GSK_TCAKS: pIC50 HepG2 human cell line viability assay using luminiscence. […] Seeding density was checked to ensure that new mono-layers were not more than 50% confluent at the time of harvesting. Cell suspension was added to 500 mL of the same medium at a final density of 1.2 * 10^5 cells/mL. This cell suspension was dispensed (25 uL, 3000 cells per well) into 384-well clear-bottom plates using a Multidrop Combi dispenser. Prior to addition of the cell suspension, the screening compounds (250 nL) were pre-dispensed into the plates with an Echo liquid handler. Plates were incubated for 48 h at 37C, 5% CO2. After incubation, plates equilibrated at room temperature for 30 min before proceeding to develop the luminescent signal. The signal developer, CellTiter-Glo Reagent, was allowed to equilibrate at room temperature for 30 min and added to the plates (25uL per well) using a Multidrop Combi dispenser. Plates were left for 10 min at room temperature for stabilization and then read using a ViewLux.
# Assay type: toxicity, cell-based

Inquiry: Give its IC50 at 48 h value. Item: O=C(NC(c1ccc(Cl)cc1)c1cnccn1)C1CCN(C(=O)Nc2cccc(C(F)(F)F)c2)CC1 (stereo unspecified)
Reply text: > 100 µM

Inquiry: Give its IC50 at 48 h value. Item: O=C(COc1ccccc1)Nc1ccccc1C(=O)Nc1nccs1
Reply text: > 100 µM

Inquiry: Give its IC50 at 48 h value. Item: Cc1cc(Br)cc(C(=O)c2c(C(C)C)c(=O)[nH]c(=O)n2Cc2ccnc(N)c2)c1
Reply text: > 100 µM

Inquiry: Give its IC50 at 48 h value. Item: CC(C)CC(=O)Nc1cc(C2CC2)nn1-c1nc2c(c(=O)[nH]1)CCCC2
Reply text: > 100 µM

Inquiry: Give its IC50 at 48 h value. Item: COc1ccc(Nc2nc(-c3ccccn3)cc(N3CCCC(O)C3)n2)cc1 (stereo unspecified)
Reply text: 39.8 µM

Inquiry: Give its IC50 at 48 h value. Item: O=C(Nc1ccc(-c2nc3ccccc3c(=O)[nH]2)cc1)c1cccs1
Reply text: > 100 µM

Inquiry: Give its IC50 at 48 h value. Item: Oc1cc(CSc2ccc(Cl)cc2)nc(-c2ccccn2)n1
Reply text: > 100 µM

Inquiry: Give its IC50 at 48 h value. Item: COCCn1c(-c2ccccc2)cnc1NCc1ccccc1OC
Reply text: 20 µM

Inquiry: Give its IC50 at 48 h value. Item: CC(C)(C)CC(=O)NCc1noc(COc2ccccc2)n1
Reply text: > 100 µM

Inquiry: Give its IC50 at 48 h value. Item: O=C(Nc1nc(-c2ccccn2)cs1)C1CCc2ccccc2C1 (stereo unspecified)
Reply text: 39.8 µM

Inquiry: Give its IC50 at 48 h value. Item: COc1ccc(C(C)N(C)c2ncc3c(N)nc(N)nc3n2)cc1F (stereo unspecified)
Reply text: > 100 µM

====

Provide the recorded pIC50 for the entries that follow.
# System: Trypanosoma cruzi
# measurement-notes: GSK_TCAKS: pIC50 H2C9 Imaging: H9c2 Host Cardiomyocytes. […] Cells were then washed once with PBS before infection. T. cruzi trypomastigotes, collected at days 5 to 8 after infection from LLC-MK2 parasite infected cultures, were allowed to swim out for 4h at 37C from a centrifuged pellet (2,500 rpm/10 min/room temperature). Trypomastigotes were then collected and counted in a CASY Cell Counter. Trypomastigotes, in supplemented DMEM, were added to H9c2 cultures in a multiplicity of infection of 1 and incubated for 18 h. Cells were washed once with PBS before incubation of the infected H9c2 monolayer with trypsin (Life-Technologies) to detach cells from the flask. Cells were counted in a CASY Cell Counter using a 150 um capillary and their density set at 5 * 10^4 cells per mL in supplemented assay DMEM. Infected H9c2 were dispensed into 384-well poly-lysine coated assay plates at 50uL per well using a Multidrop Combi dispenser. After seeding them, the plates were incubated at 37C, 5% CO2 for 72h. Cultures were then fixed and stained by addition of 50 uL of a solution containing 8% formaldehyde and 4 uM DRAQ5 DNA dye (BioStatus, UK) per well. […] Five images were collected per well for reliable statistical analysis. Automated image analysis was performed with a script developed on Acapella High Content Imaging and Analysis Software (PerkinElmer). Output: Number of H9c2 Host Cardiomyocytes nuclei to determine drug-related cytotoxicity.
# Type: functional, organism-based, Rattus norvegicus
# condition: H9c2, 4 h
For clarity, pIC50 is expressed as the negative log10 of concentration in mol/L.

Inquiry: Give its pIC50 value. Item: O=C(NCC(c1cccs1)N1CCOCC1)c1ccc([N+](=O)[O-])o1 (stereo not given)
Reply text: 5.30

Inquiry: Give its pIC50 value. Item: COc1ccc(-c2cc(C)no2)cc1S(=O)(=O)Nc1ccc(C)c(C)c1
Reply text: 4.80

Inquiry: Give its pIC50 value. Item: COCCn1c(-c2ccc3c(c2)OCO3)cnc1NCc1ccccc1OC
Reply text: 4.40

Inquiry: Give its pIC50 value. Item: CN1CCN(c2nc(-c3ccc(Cl)cc3)c3c(N)n(C)nc3n2)CC1
Reply text: 4.60

Inquiry: Give its pIC50 value. Item: CCN(CC)c1ncc(C(=O)c2ccc([N+](=O)[O-])o2)s1
Reply text: 5.30

====

# System: Trypanosoma cruzi
# measurement-notes: GSK_TCAKS: pIC50 H2C9 Imaging: H9c2 Host Cardiomyocytes. […] Cells were then washed once with PBS before infection. T. cruzi trypomastigotes, collected at days 5 to 8 after infection from LLC-MK2 parasite infected cultures, were allowed to swim out for 4h at 37C from a centrifuged pellet (2,500 rpm/10 min/room temperature). Trypomastigotes were then collected and counted in a CASY Cell Counter. Trypomastigotes, in supplemented DMEM, were added to H9c2 cultures in a multiplicity of infection of 1 and incubated for 18 h. Cells were washed once with PBS before incubation of the infected H9c2 monolayer with trypsin (Life-Technologies) to detach cells from the flask. Cells were counted in a CASY Cell Counter using a 150 um capillary and their density set at 5 * 10^4 cells per mL in supplemented assay DMEM. Infected H9c2 were dispensed into 384-well poly-lysine coated assay plates at 50uL per well using a Multidrop Combi dispenser. After seeding them, the plates were incubated at 37C, 5% CO2 for 72h. Cultures were then fixed and stained by addition of 50 uL of a solution containing 8% formaldehyde and 4 uM DRAQ5 DNA dye (BioStatus, UK) per well. […] Five images were collected per well for reliable statistical analysis. Automated image analysis was performed with a script developed on Acapella High Content Imaging and Analysis Software (PerkinElmer). Output: Number of H9c2 Host Cardiomyocytes nuclei to determine drug-related cytotoxicity.
# Format: functional, organism-based, Rattus norvegicus
# condition: H9c2, 4 h
Provide the recorded IC50 for the entries that follow.

Inquiry: Give its IC50 value. Item: NCc1csc(Nc2cc(Oc3ccccc3)ncn2)n1
Reply text: > 50.1 µM

Inquiry: Give its IC50 value. Item: O=C(O)[C@H]1C[C@@H]1c1ccc(-c2ccc(CN(CCc3ccccn3)C(=O)C3CCC3)cc2)cc1
Reply text: > 50.1 µM

Inquiry: Give its IC50 value. Item: CCC(CC)C(=O)Nc1cccc(C(=O)Nc2nnc(C3CCCCC3)s2)c1
Reply text: > 50.1 µM

Inquiry: Give its IC50 value. Item: COc1ccc(-c2cnc(NC(=O)c3ccc(F)cc3)n2C)cc1
Reply text: > 50.1 µM

Inquiry: Give its IC50 value. Item: CC(C)(C)Nc1nc(-c2ccccn2)nc2ccccc12
Reply text: 0.316 µM

Inquiry: Give its IC50 value. Item: O=C(Cn1cnc2cc([N+](=O)[O-])ccc2c1=O)NCCc1ccc(Cl)cc1Cl
Reply text: > 50.1 µM

Inquiry: Give its IC50 value. Item: Cc1cc(=O)n2nc(Oc3ccc(C#N)cc3Cl)sc2n1
Reply text: 31.6 µM

Inquiry: Give its IC50 value. Item: COCc1cnc2c(c1SCc1c(F)cccc1Cl)c(=O)n(C)c(=O)n2C
Reply text: > 50.1 µM

Inquiry: Give its IC50 value. Item: COc1ccc(OC)c(S(=O)(=O)N(Cc2c(F)cccc2F)[C@@H]2CCN(C#N)C2)c1
Reply text: 15.8 µM

Inquiry: Give its IC50 value. Item: O=C(NNC(=O)c1ccccn1)c1ccc(-c2ccccc2)cc1
Reply text: 2 µM

Inquiry: Give its IC50 value. Item: Oc1cccnc1-c1nc(Cc2ccccc2)n[nH]1
Reply text: 15.8 µM

Inquiry: Give its IC50 value. Item: O=c1ccc2ccc(F)c3c2n1C[C@H]3CN1CCN(CC(O)c2cc3c(cn2)OCS3)CC1 (stereo partly drawn)
Reply text: > 50.1 µM

Inquiry: Give its IC50 value. Item: Cc1nc(N2CC(C)OC(C)C2)sc1C(=O)Nc1ccc2c(c1)OCO2 (stereo not drawn)
Reply text: > 50.1 µM

Inquiry: Give its IC50 value. Item: CCOc1ccc2nc(NC(=O)c3ccc([N+](=O)[O-])s3)sc2c1
Reply text: 10 µM

Inquiry: Give its IC50 value. Item: Cc1n[nH]c2c1C(c1ccc(OCc3ccccc3F)cc1)SCC(=O)N2 (stereo not drawn)
Reply text: > 50.1 µM

Inquiry: Give its IC50 value. Item: CC(c1cc(Cl)cc(Cl)c1)N(C)c1ncc2c(N)nc(N)nc2n1 (stereo not drawn)
Reply text: 7.94 µM

Inquiry: Give its IC50 value. Item: CC(C)c1nn(-c2nc(N)nc(-c3ccccn3)n2)c(N)c1C1CCCCC1
Reply text: 3.16 µM

Inquiry: Give its IC50 value. Item: N#Cc1cccc(Nc2nccc(N3CCC(NS(=O)(=O)c4cccc(C#N)c4)CC3)n2)c1
Reply text: 31.6 µM

Inquiry: Give its IC50 value. Item: CC(C)n1c(-c2nonc2N)nc2cccc(OCCN3CCCC3)c21
Reply text: 31.6 µM

Inquiry: Give its IC50 value. Item: COCc1cc(Nc2ccccc2)nc(-c2ccccn2)n1
Reply text: 3.98 µM

Inquiry: Give its IC50 value. Item: CNc1cc(Cn2c(C(=O)c3cc(C)cc(Cl)c3)c(C(C)C)c(=O)[nH]c2=O)ccn1
Reply text: > 50.1 µM

Inquiry: Give its IC50 value. Item: O=C(NCc1ccc(Cl)cc1)C1CN(C(=O)c2ccc(F)cc2)CCS1 (stereo not drawn)
Reply text: > 50.1 µM

Inquiry: Give its IC50 value. Item: CCN(CC)c1nc(Nc2ccncc2)nc2ccccc12
Reply text: 7.94 µM

Inquiry: Give its IC50 value. Item: c1ccc2sc(Nc3nc4ncccc4[nH]3)nc2c1
Reply text: 1 µM

Inquiry: Give its IC50 value. Item: CC(C)(C)c1csc(NC(=O)c2ccc([N+](=O)[O-])s2)n1
Reply text: 12.6 µM

Inquiry: Give its IC50 value. Item: Cc1cc(C)nc(N2CCC(N(Cc3cccnc3)C(=O)c3cccc(C#N)c3)CC2)n1
Reply text: > 50.1 µM

Inquiry: Give its IC50 value. Item: C[C@@H](Oc1cc(-n2cnc3ccc(C(O)CO)cc32)sc1C(N)=O)c1ccccc1C(F)(F)F (stereo partly drawn)
Reply text: 0.631 µM

Inquiry: Give its IC50 value. Item: N#Cc1ccc(S(=O)(=O)N2CCN(Cc3cccc(-c4ccncc4)c3)CC2)cc1
Reply text: 25.1 µM

Inquiry: Give its IC50 value. Item: Oc1nccc2ccc(-c3ccncc3)cc12
Reply text: > 50.1 µM

Inquiry: Give its IC50 value. Item: Cc1ccc(NC(=O)c2ccc(Cl)c(NC(=O)c3ccc([N+](=O)[O-])cc3)c2)cc1
Reply text: > 50.1 µM

Inquiry: Give its IC50 value. Item: Cn1ccnc1-c1nc(NCc2ccccc2Cl)cc(C2CC2)n1
Reply text: 0.631 µM

Inquiry: Give its IC50 value. Item: CS(=O)(=O)c1cccc(-c2cnc(N)c3c(-c4ccc(CO)cc4)csc23)c1
Reply text: > 50.1 µM

Inquiry: Give its IC50 value. Item: COc1cccc(Nc2cc(C)nc(-c3ccccn3)n2)c1
Reply text: 5.01 µM

Inquiry: Give its IC50 value. Item: C[C@@H](Oc1cc(-n2cnc3ccc(CC(O)CO)cc32)sc1C(N)=O)c1ccccc1Cl (stereo partly drawn)
Reply text: 0.126 µM

Inquiry: Give its IC50 value. Item: O=C(c1cnn(-c2ccccc2)n1)N1CCCC(n2ccnc2)C1 (stereo not drawn)
Reply text: > 50.1 µM

Inquiry: Give its IC50 value. Item: O=C1CN(C2CCCc3c(OCc4ccncc4)cccc32)C(=O)N1C1CCCCC1 (stereo not drawn)
Reply text: > 50.1 µM

Inquiry: Give its IC50 value. Item: Cn1ccnc1CN1CCc2[nH]cnc2C1c1ccccc1OCc1ccccc1 (stereo not drawn)
Reply text: > 50.1 µM

Inquiry: Give its IC50 value. Item: COc1cc(C2SCC(=O)Nc3c2c(C)nn3-c2nc3ccccc3s2)cc(OC)c1O (stereo not drawn)
Reply text: > 50.1 µM

Inquiry: Give its IC50 value. Item: COc1ccccc1CNc1cc(C2CC2)nc(-c2nccn2C)n1
Reply text: 0.631 µM

Inquiry: Give its IC50 value. Item: CS(=O)(=O)c1cccc(CNC(=O)c2cncc(N3CCN(c4ccc(F)cc4)CC3)c2)c1
Reply text: > 50.1 µM

Inquiry: Give its IC50 value. Item: COc1ccc(Cl)cc1CC(=O)Nc1nnc(-c2ccccn2)[nH]1
Reply text: > 50.1 µM

Inquiry: Give its IC50 value. Item: O=C(Nc1cccc(Cl)c1)N1CCCCC1c1cccnc1 (stereo not drawn)
Reply text: > 50.1 µM

Inquiry: Give its IC50 value. Item: COC(=O)c1ccc(-c2cnc3ccc(NCc4ccccn4)nn23)cc1
Reply text: > 50.1 µM
